- EXPERIMENTAL TARGET: full length human FXR (Homo sapiens, UniProt Q96RI1)
- Construct: expressed in transfected cells
- Sequence (Q96RI1 1-472 isoform Q96RI1-2): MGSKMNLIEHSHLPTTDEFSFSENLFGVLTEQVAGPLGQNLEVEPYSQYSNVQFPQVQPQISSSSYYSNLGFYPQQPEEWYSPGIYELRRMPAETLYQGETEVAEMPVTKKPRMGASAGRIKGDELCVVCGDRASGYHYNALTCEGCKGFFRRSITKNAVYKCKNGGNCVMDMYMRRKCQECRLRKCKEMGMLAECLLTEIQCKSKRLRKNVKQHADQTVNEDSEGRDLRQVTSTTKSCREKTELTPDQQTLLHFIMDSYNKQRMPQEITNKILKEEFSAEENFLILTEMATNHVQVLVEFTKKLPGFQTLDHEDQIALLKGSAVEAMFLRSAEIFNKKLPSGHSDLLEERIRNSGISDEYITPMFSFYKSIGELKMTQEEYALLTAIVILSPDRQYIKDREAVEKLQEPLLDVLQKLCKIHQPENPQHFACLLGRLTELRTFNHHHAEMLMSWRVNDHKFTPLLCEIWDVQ
- Sequence (P19793 whole entry partner): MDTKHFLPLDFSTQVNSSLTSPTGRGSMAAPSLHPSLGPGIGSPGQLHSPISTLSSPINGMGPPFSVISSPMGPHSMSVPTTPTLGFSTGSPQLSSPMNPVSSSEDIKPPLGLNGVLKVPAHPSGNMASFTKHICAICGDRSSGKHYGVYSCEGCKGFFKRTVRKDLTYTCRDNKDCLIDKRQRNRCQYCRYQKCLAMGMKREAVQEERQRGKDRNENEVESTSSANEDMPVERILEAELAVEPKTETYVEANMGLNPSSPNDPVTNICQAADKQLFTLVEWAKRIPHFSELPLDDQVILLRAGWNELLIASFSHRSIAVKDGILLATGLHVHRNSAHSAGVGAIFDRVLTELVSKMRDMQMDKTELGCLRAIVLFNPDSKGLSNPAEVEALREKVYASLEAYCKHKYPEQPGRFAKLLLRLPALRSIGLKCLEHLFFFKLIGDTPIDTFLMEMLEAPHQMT
- EXPERIMENT DESCRIPTION: transactivation of FXR mediated transcription in a HEK293 reporter cell line (luciferase)
- Type: cell-based
- MEASUREMENT CONDITIONS: HEK293, read-out: EFFIC AVG (average efficacy, % activity relative to CDCA control agonist), relative to CDCA control agonist; Tables 3-5
TEST READOUT: Emax (%)
API: value field is a number in %; no unit string.

Worked examples follow.
| MOLECULE | UNIT LABEL | Emax |
| --- | --- | --- |
| COc1ccccc1Cc1sc(NCC2CCC(C(=O)O)CC2)nc1-c1ccccc1O (centres unmarked) | % | 116 |
| COc1ccccc1Cc1sc(NCCCCCC(=O)O)nc1-c1ccccc1O | % | 66 |
| O=C(O)c1ccc(CNc2nc(-c3ccccc3O)c(Cc3c(F)cccc3F)s2)cc1 | % | 115 |

IN: Sample COc1ccccc1Cc1sc(NCc2ccc(C(=O)O)cc2)nc1-c1ccccc1O — what was its Emax?
OUT: 105

IN: Proceed to O=C(O)C1CCC(CNc2nc(-c3ccccc3O)c(Cc3cccc(F)c3F)s2)CC1 (centres unmarked)
OUT: 115

IN: Proceed to O=C(O)CCCCCNc1nc(-c2ccccc2O)c(Cc2cccc(F)c2F)s1
OUT: 63

IN: Proceed to O=C(O)C1CCC(CNc2nc(-c3cccc(O)c3)c(Cc3c(F)cccc3F)s2)CC1 (centres unmarked)
OUT: 109

IN: Proceed to O=C(O)c1ccc(CNc2nc(-c3cccc(O)c3)c(Cc3c(F)cccc3F)s2)cc1
OUT: 66
